Origin of values: ChEMBL document CHEMBL1201862

Each item that follows carries a reported GI50.
- Tested on: TK-10
- Assay procedure: NCI tumour cell line growth inhibition, 48 h
Activity calls are given as the source filed them. No stated cut-off is given here; in the data, active = GI50 up to about 1.1 µM and inactive = higher.
Outcome measure: GI50

Compound: COC(=O)CC(NC(=O)OCc1ccccc1)C(C(=O)OCc1ccccc1)C(C)(OC)OC (stereo not drawn)
Outcome measure: GI50
Val: 39.2 µM (inactive)
--
Compound: O=C1CCC2(c3ccccc3)OCC([C@@H](O)c3ccccc3)N12 (stereo partly drawn)
Outcome measure: GI50
Val: > 100 µM (inactive)
--
Compound: CC(C)OP(=O)(OC(C)C)/C(=N/Nc1ccc([N+](=O)[O-])cc1)NCCO
Outcome measure: GI50
Val: > 100 µM (inactive)
--
Compound: O=C1/C(=C\c2cccc(Oc3ccccc3)c2)SC(c2ccccc2)N1c1cccc([N+](=O)[O-])c1 (stereo not drawn)
Outcome measure: GI50
Val: > 100 µM (inactive)
--
Compound: O=C1/C(=C/c2ccccc2)CCC/C1=C\c1ccc(O)c(CN2CCCCC2)c1
Outcome measure: GI50
Val: 15.2 µM (inactive)
--
Compound: COC(=O)c1ccccc1C1CN=NC12Cc1ccc3ccccc3c1C2=O (stereo not drawn)
Outcome measure: GI50
Val: > 100 µM (inactive)
--
Compound: CC(C)C(=O)NC(=S)Nc1ccc([N+](=O)[O-])cc1C#N
Outcome measure: GI50
Val: > 100 µM (inactive)
--
Compound: CC(NC(=O)Cc1ccccc1)NC(=O)C(C)C(=O)Nc1ccccc1 (stereo not drawn)
Outcome measure: GI50
Val: 33.3 µM (inactive)
--
Compound: CC(=O)c1nc2ccccc2n1CC(=O)c1ccc([N+](=O)[O-])cc1
Outcome measure: GI50
Val: 42.5 µM (inactive)
--
Compound: CN(C)c1ccc(/C=N\NC(=O)Nc2cccc3ccccc23)cc1
Outcome measure: GI50
Val: 12.2 µM (inactive)
--
Compound: CCOC(=O)c1c(N=C(S)Nc2ccc(Cl)cc2)sc2c1CCN(C)C2
Outcome measure: GI50
Val: > 100 µM (inactive)
--
Compound: O=C(CC(=O)N1N=C(N2CCCCC2)CC1c1ccccc1)Nc1ccccc1 (stereo not drawn)
Outcome measure: GI50
Val: > 100 µM (inactive)
--
Compound: CN(C)C(=S)/N=c1\ssc(=S)n1Cc1ccccc1
Outcome measure: GI50
Val: 1.45 µM (inactive)
--
Compound: CCCCCCCCCCCCCC(=O)NCO
Outcome measure: GI50
Val: > 100 µM (inactive)
--
Compound: CCOc1cc2c(OCc3ccccc3)cc3c4cc(OC)c(OC)cc4c[n+](C)c3c2cc1OC
Outcome measure: GI50
Val: 10.3 µM (inactive)
--
Compound: COc1cc2nc(-c3cccc(N(C)C)c3)cc(O)c2cc1OC
Outcome measure: GI50
Val: > 100 µM (inactive)
--
Compound: COc1ccc(C(=O)CC(c2ccc(OC)c(OC)c2)c2c(O)oc3ccccc3c2=O)cc1OC (stereo not drawn)
Outcome measure: GI50
Val: > 100 µM (inactive)
--
Compound: Cc1ccc(C(N)=O)cc1/N=N/N(C)C
Outcome measure: GI50
Val: > 100 µM (inactive)
--
Compound: Cc1sc2c(c1C)/C(=N\O)c1cccn1-2
Outcome measure: GI50
Val: 43.6 µM (inactive)
--
Compound: O=C1C2=C(c3ccccc31)C(c1ccccc1)NC(S)=N2 (stereo not drawn)
Outcome measure: GI50
Val: > 100 µM (inactive)
--
Compound: C/C=C\C(C)=C/C(C)C(=O)CC(O)CC1CC(=O)NC(=O)C1 (stereo not drawn)
Outcome measure: GI50
Val: 49.2 µM (inactive)
--
Compound: Cc1ccc(CC(C)N)cc1 (stereo not drawn)
Outcome measure: GI50
Val: > 100 µM (inactive)
--
Compound: C/C(=N\NC(N)=S)c1ccc(C)c(C)c1
Outcome measure: GI50
Val: 53.5 µM (inactive)
--
Compound: COc1ccc(CNc2nc3cc(C(F)(F)F)ccc3nc2C)cc1OC
Outcome measure: GI50
Val: 24.3 µM (inactive)
--
Compound: CC(CO)(Nc1ccc([N+](=O)[O-])cc1[N+](=O)[O-])C(=O)O (stereo not drawn)
Outcome measure: GI50
Val: 36.1 µM (inactive)
--
Compound: CC12CCC(/C(=N/c3ccc([N+](=O)[O-])cc3)C1=O)C2(C)C (stereo not drawn)
Outcome measure: GI50
Val: 16.9 µM (inactive)
--
Compound: COc1cc2c(c(O)c1C)C(=O)CC(c1ccccc1)O2 (stereo not drawn)
Outcome measure: GI50
Val: 32.2 µM (inactive)
--
Compound: C=CCCON(C(=O)OC(C)(C)C)C(C)(C)C
Outcome measure: GI50
Val: > 100 µM (inactive)
--
Compound: COc1cc([C@@H]2c3cc4c(cc3[C@@H](NC(=O)c3cccc(C#N)c3)C3COC(=O)[C@@H]32)OCO4)cc(OC)c1O (stereo partly drawn)
Outcome measure: GI50
Val: 3.29 µM (inactive)
--
Compound: COP(=O)(OC)C(C)(C)NC(=O)NC(F)(F)F
Outcome measure: GI50
Val: > 100 µM (inactive)
--
Compound: N#Cc1c(-c2ccccc2)cc(Nc2ccc(F)cc2)n2c1nc1ccccc12
Outcome measure: GI50
Val: 3.55 µM (inactive)
--
Compound: CC(C)(C)c1cc([Si](C)(C)C)c(C#N)c([Si](C)(C)C)c1
Outcome measure: GI50
Val: > 100 µM (inactive)
--
Compound: CC/C(CC(=O)CCC(=O)Nc1ccccc1[N+](=O)[O-])=N/NC(=O)C[n+]1ccccc1
Outcome measure: GI50
Val: > 100 µM (inactive)
--
Compound: FC1(F)ON2CCc3ccccc3C2[C@H]1c1ccccc1 (stereo partly drawn)
Outcome measure: GI50
Val: > 10 µM (inactive)
--
Compound: NC1=Nc2ccccc2Sc2nnc(-c3ccc(Cl)cc3)n21
Outcome measure: GI50
Val: 40.8 µM (inactive)
--
Compound: O=C(O)C1=C(Cl)c2ccccc2S1(=O)=O
Outcome measure: GI50
Val: > 100 µM (inactive)
--
Compound: C#CC(O)/C=C/C(O)CCCC(O)CC#CC(O)C#CC(O)CCCC(O)/C=C/CCCC(=O)CCCCCCCCCCCCCCCC(O)C(O)C#CC(=O)O (stereo not drawn)
Outcome measure: GI50
Val: > 50 µM (inactive)
--
Compound: O=C1NC(N2CCCCC2)=N/C1=C\c1ccccc1O
Outcome measure: GI50
Val: > 100 µM (inactive)
--
Compound: CC1=CC[C@](C)(O)[C@@]2(C)CC[C@H]3C(=C(C)C)C(=O)C[C@]3(C)C[C@H]12
Outcome measure: GI50
Val: > 50 µM (inactive)
--
Compound: COC(=O)C1=CCON(c2ccccc2)C1c1ccccc1 (stereo not drawn)
Outcome measure: GI50
Val: 44.9 µM (inactive)
--
Compound: O=[N+]([O-])c1ccc(Sc2c3ccccc3nc3ccccc23)nc1
Outcome measure: GI50
Val: 2.96 µM (inactive)
--
Compound: C/C=C/[C@@H]1[C@H]2C(=O)[C@]3(Cl)[C@@H](/C=C/C)[C@@H]3C(=O)[C@@]12Cl
Outcome measure: GI50
Val: > 100 µM (inactive)
--
Compound: COc1ccc(C2c3cc4c(cc3OC(N3CCCCC3)C2C)OCO4)cc1 (stereo not drawn)
Outcome measure: GI50
Val: > 100 µM (inactive)
